Overview of recorded mean OD405nm of bound serum IgG (+ scFv) for various binders
- assay-system: T1, PF4/heparin complex (human PF4 complexed with heparin) (human, UniProt P02776 32-101)
- T1 construct: Multimeric complex of PF4 with heparin (not a protein); In the EIAs: PF4 captured on biotinylated heparin on streptavidin plates; In the SRA: platelets with 0.2 U/mL heparin; also called PF4 and heparin complexes
- T1 sequence: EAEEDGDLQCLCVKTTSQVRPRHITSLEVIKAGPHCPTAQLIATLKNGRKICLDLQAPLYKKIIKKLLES
- method: competition EIA, scFv 50 µg/mL; competitor HIT-negative sera antibodies, n=10
Numeric answer only, unit OD405nm assumed.

Solved cases below.
| binder | mean OD405nm of bound serum IgG (+ scFv) / OD405nm |
| --- | --- |
| Wildtype scFv (KKO-derived single chain variable fragment) (scFv, VL-(G4S)3 linker-VH; expressed in E. coli BL21 from pADL-22c, purified on Ni-NTA as histidine-tagged scFv, about 28 kDa; also called WT; KKO-scFv; not shown: histidine tag from the pADL-22c vector) scFv: DIQMIQSQKFMSTSVGDRVTVTCKASQNVGTNVAWYQQKPGQSPNALIYSASYRYSGVPDRFTGSGSGTDFTLTITNVQSEDLADYFCQQYNSYPLTFGTGTKLDLKGGGGSGGGGSGGGGSVQLQQSGAELVKPGASVKLSCKASGYTFTNYFIYWVKQRPGQGLEWIGEINPRNGDTDFNEKFESRATLTVDKSSSTAYMQLSSLTSEDSAIYYCTRSPYGNNYGFTYWGQGTLVTVSA | 1.41 |
| Mutant B scFv, scFv(R18K, N152K, D180N) (scFv, VL-linker-VH; histidine-tagged, from E. coli BL21; also called Mut B; not shown: histidine tag from the pADL-22c vector) scFv: DIQMIQSQKFMSTSVGDKVTVTCKASQNVGTNVAWYQQKPGQSPNALIYSASYRYSGVPDRFTGSGSGTDFTLTITNVQSEDLADYFCQQYNSYPLTFGTGTKLDLKGGGGSGGGGSGGGGSVQLQQSGAELVKPGASVKLSCKASGYTFTKYFIYWVKQRPGQGLEWIGEINPRNGDTNFNEKFESRATLTVDKSSSTAYMQLSSLTSEDSAIYYCTRSPYGNNYGFTYWGQGTLVTVSA | 1.1 |

Input: Tell me its mean OD405nm of bound serum IgG (+ scFv) given Mutant C scFv, scFv(S50N, Y53H) (scFv, VL-linker-VH; histidine-tagged, from E. coli BL21; also called Mut C; not shown: histidine tag from the pADL-22c vector) scFv: DIQMIQSQKFMSTSVGDRVTVTCKASQNVGTNVAWYQQKPGQSPNALIYNASHRYSGVPDRFTGSGSGTDFTLTITNVQSEDLADYFCQQYNSYPLTFGTGTKLDLKGGGGSGGGGSGGGGSVQLQQSGAELVKPGASVKLSCKASGYTFTNYFIYWVKQRPGQGLEWIGEINPRNGDTDFNEKFESRATLTVDKSSSTAYMQLSSLTSEDSAIYYCTRSPYGNNYGFTYWGQGTLVTVSA as the entry.
Output: 1.24
